Test system: Wolbachia pipientis
Test: Anti-Wolbachia Cell-Based Screen
Type: functional
Parameters: scale not given: in the data most compounds retested in dose-response had high values
Details: 5 µM
Out of some 48,000 compounds screened, about 13,000 (27%) showed an effect of 50% or more. Some of the results follow.
Quantity Name: Percent Effect (%)
Form entry: value (%) — number only.

Reference set, count: 3
Compound	Percent Effect (%)
CN1CCc2cc(C(CNS(=O)(=O)c3cccs3)N3CCCC3)ccc21 (centres undefined)	-7.457
Cc1cc(Nc2nc(C)cs2)nc(C2CCCCN2CCO)n1 (centres undefined)	-3.809
O=C(CCOCC(F)(F)F)N1CCCC1c1noc(C2CC2)n1 (centres undefined)	110.3

Exercise: What does the data say about its Percent Effect? Entry: "COc1ccc(C(=O)N2CC[C@@H](N3CCC(O)CC3)[C@H](O)C2)cc1C"
Key: -6.669

Exercise: What does the data say about its Percent Effect? Entry: Cc1nn(C)c(Cl)c1C1CCCN1c1ncnc2sccc12 (centres undefined)
Key: -14.86

Exercise: What does the data say about its Percent Effect? Entry: COCC(=O)N1CCCC1c1nccnc1Nc1ncccn1 (centres undefined)
Key: 112.6

Exercise: What does the data say about its Percent Effect? Entry: CCC1CN(C(=O)c2ccc(Cl)cc2O)CCN1C(C)C (centres undefined)
Key: -0.08814

Exercise: What does the data say about its Percent Effect? Entry: O=C(Cc1ccc2c(c1)CCO2)N1CCCC1c1noc(C2CC2)n1 (centres undefined)
Key: 96.74

Exercise: What does the data say about its Percent Effect? Entry: CCn1cc(CNC2CC(=O)N(CCc3cccc(Cl)c3)C2)cn1 (centres undefined)
Key: -6.807

Exercise: What does the data say about its Percent Effect? Entry: Cn1cc(CN2CCCC(CCc3ccc(F)c(F)c3)C2)cn1 (centres undefined)
Key: -4.852

Exercise: What does the data say about its Percent Effect? Entry: "NC(=O)C1CCN(Cn2nc(-c3ccccc3)oc2=O)CC1"
Key: -3.823

Exercise: What does the data say about its Percent Effect? Entry: CCc1ncc(CNC2CC(=O)N(CCc3cccc(Cl)c3)C2)cn1 (centres undefined)
Key: -5.676

Exercise: What does the data say about its Percent Effect? Entry: O=C(NCCn1ccnc1)C1COCC(=O)N1Cc1ccccc1 (centres undefined)
Key: -11.36

Exercise: What does the data say about its Percent Effect? Entry: O=C(COC1CCCC1)N1CCCC1c1noc(C2CC2)n1 (centres undefined)
Key: -26.64

----------
Tested on: Wolbachia pipientis
Assay: Anti-Wolbachia Cell-Based Screen
Format: functional
Set-up: scale not given: in the data most compounds retested in dose-response had high values
Details: 5 µM
About 13,000 (27%) of roughly 48,000 compounds showed an effect of 50% or more. The list shows a part of the results.
Entries annotated with measured Percent Effect
Form entry: value (%) — number only.

Reference set, count: 4
Compound	Percent Effect [%]
Cn1c(Cl)cnc1CN1CCCC1c1ccc2c(c1)OCCO2 (stereo not given)	-20.61
COCCNC(=O)C1CN(Cc2nccs2)Cc2ccnn2C1.O=C(O)C(F)(F)F.O=C(O)C(F)(F)F (stereo not given)	-2.959
Cc1cccc(C(=O)Nc2cccc3c2C(=O)NC3)n1	-5.114
COC1CCN(C(=O)Nc2cc(C(F)(F)F)c[nH]c2=O)CC1	107.9

Exercise: What does the data say about its Percent Effect? Entry: "O=C(NCCN1CCc2ccccc21)c1cc(-c2ccc(O)cc2)n[nH]1"
Key: -2.452
